molecular target: CtKti12 (Thermochaetoides thermophila, UniProt G0SHI1, K14A); construct: full-length, codon-optimized ORF in pET24d (NcoI/XhoI), purified from bacteria; PDB 6QP0 (earlier work) covers the ATPase domain only; experiment: fluorescence polarization, one-site fit
Sequence (G0SHI1 entry or part of it K14A): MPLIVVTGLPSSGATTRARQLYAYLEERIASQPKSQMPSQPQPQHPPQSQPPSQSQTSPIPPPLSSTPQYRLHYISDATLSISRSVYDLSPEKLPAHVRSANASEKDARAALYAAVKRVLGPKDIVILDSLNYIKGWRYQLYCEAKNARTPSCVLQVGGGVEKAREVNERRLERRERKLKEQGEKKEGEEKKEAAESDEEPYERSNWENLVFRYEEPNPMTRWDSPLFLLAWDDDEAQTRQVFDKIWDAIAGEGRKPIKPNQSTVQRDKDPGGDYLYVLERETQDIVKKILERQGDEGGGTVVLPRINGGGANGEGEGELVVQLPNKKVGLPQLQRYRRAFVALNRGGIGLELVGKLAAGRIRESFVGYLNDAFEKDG
pKd: −log10 of the molar value.
assay_metric: pKd

Under CtKti12 (Thermochaetoides thermophila, UniProt G0SHI1, K14A): pKd value of "CNc1ccccc1C(=O)O[C@H]1[C@@H](O)[C@H](n2cnc3c(N)ncnc32)O[C@@H]1CO[P@@](=O)(O)O[P@](=O)(O)OP(=O)(O)O" ?
< 4.00

These entries and their values trace back to paper PMC7363723.
